# Bluegrass plant response rating values compiled below
Test system: bluegrass (annual bluegrass, Poa annua)
Assay: Test D controlled growth environment herbicide test, pre- and postemergence
Assay type: in vivo
Settings: Postemergence, 31 g ai/ha; scale 0 to 100 (0 no effect, 100 complete control)

| COMPOUND | Bluegrass plant response rating |
| --- | --- |
| CCc1sc2c(C)cc(C)cc2c1-c1c(O)c(C)nn(C)c1=O [Compound 57] | 5 |
| Cc1nn(C)c(=O)c(-c2ccc(Br)c3ccccc23)c1O [Compound 75] | 10 |
| Cc1nn(C)c(=O)c(-c2cccc3ccc(Br)cc23)c1O [Compound 126] | 0 |
| Cc1ccc2ccccc2c1-c1c(OC(=O)OC(C)C)c(C)nn(C)c1=O [Compound 72] | 20 |
| Cc1cc2ccccc2c(-c2c(O)c(C)nn(C)c2=O)c1C [Compound 34] | 10 |
| Cc1nn(C)c(=O)c(-c2c(C)sc3ccc(Br)cc23)c1O [Compound 22] | 10 |

###

Tested on: barnyardgrass (Echinochloa crus-galli)
Experiment: Test A greenhouse herbicide test, pre- and postemergence
Type: in vivo
Details: Postemergence, 500 g ai/ha; visual rating after approx. 10 d, 0 to 100 scale (0 no effect, 100 complete control)

| COMPOUND | Plant response rating, Barnyardgrass |
| --- | --- |
| CCC(=O)Oc1c(C)nn(C)c(=O)c1-c1ccc(F)c2ccccc12 [Compound 113] | 90 |
| COC(=O)Oc1c(C)nn(C)c(=O)c1-c1c(C(F)(F)F)ccc2ccccc12 [Compound 149] | 20 |
| CCc1nn(C)c(=O)c(-c2c(C)oc3ccc(C)cc23)c1O [Compound 118] | 0 |
| Cc1nn(C)c(=O)c(-c2c([N+](=O)[O-])ccc3ccccc23)c1OC(=O)C1CC1 [Compound 167] | 20 |
| Cc1nn(C)c(=O)c(-c2ccc(Cl)c3ccccc23)c1OC(=O)C(F)(F)F [Compound 159] | 80 |
| Cc1cc(C)c2sc(C)c(-c3c(OC(=O)N4CCOCC4)c(C)nn(C)c3=O)c2c1 [Compound 174] | 10 |
| CCC(=O)Oc1c(C)nn(C)c(=O)c1-c1ccc(Br)c2ccccc12 [Compound 134] | 60 |
| Cc1ccc2ccc(Cl)cc2c1-c1c(O)c(C)nn(C)c1=O [Compound 144] | 100 |
| CC(=O)Oc1c(Cl)nn(C)c(=O)c1-c1c(C)sc2ccc(C(F)(F)F)cc12 [Compound 152] | 40 |
| Cc1nn(Cc2ccccc2)c(=O)c(-c2cccc3ccccc23)c1O [Compound 168] | 40 |
| Cc1ccc2oc(C)c(-c3c(O)c(C(C)C)nn(C)c3=O)c2c1 [Compound 119] | 0 |
| Cc1nn(C)c(=O)c(-c2ccc(Cl)c3ccccc23)c1OS(=O)(=O)C(F)(F)F [Compound 158] | 50 |
| CCC(=O)Oc1c(Br)nn(C)c(=O)c1-c1c(C)ccc2ccccc12 [Compound 156] | 90 |
| Cc1ccc2ccccc2c1-c1c(OS(C)(=O)=O)cnn(C)c1=O [Compound 142] | 20 |

###

Tested on: surinam grass (Brachiaria decumbens)
Experiment: Test E greenhouse herbicide test, pre- and postemergence
Assay type: in vivo
Conditions: 125 g ai/ha, Preemergence; scale 0 to 100 (0 no effect, 100 complete control)

| COMPOUND STRUCTURE | Plant response rating, Surinam Grass |
| --- | --- |
| Cc1nn(C)c(=O)c(-c2ccc(Br)c3ccccc23)c1O | 60 |
| Cc1ccc2ccccc2c1-c1c(OC(=O)OC(C)C)c(C)nn(C)c1=O | 75 |
| Cc1cc(C)c2ccccc2c1-c1c(O)c(C)nn(C)c1=O | 100 |
| COC(=O)Oc1c(C)nn(C)c(=O)c1-c1c(C)sc2ccc(C)cc12 | 75 |
| CCCC(=O)Oc1c(C)nn(C)c(=O)c1-c1c(C)sc2ccc(C)cc12 | 70 |
| Cc1cc(C)c2sc(C)c(-c3c(O)c(C)nn(C)c3=O)c2c1 | 90 |

###

Below, each entry is listed with its recorded Plant response rating, Kochia.
Test system: kochia (Kochia scoparia)
Experiment: Test A greenhouse herbicide test, pre- and postemergence
Assay type: in vivo
Settings: Preemergence, 500 g ai/ha; 0 to 100 scale, 0 no effect, 100 complete control
MEASUREMENT LABEL: Plant response rating, Kochia

| COMPOUND STRUCTURE | RESULT NUMBER |
| --- | --- |
| Cc1ccc2sc(C)c(-c3c(OC(=O)OC(C)C)c(C)nn(C)c3=O)c2c1 | 70 |
| Cn1nc(Br)c(O)c(-c2cccc3ccccc23)c1=O | 100 |
| Cc1cc2ccccc2c(-c2c(O)c(C)nn(C)c2=O)c1C | 60 |
| Cn1ncc(O)c(-c2cccc3ccccc23)c1=O | 0 |
| Cc1nn(C)c(=O)c(-c2c(C)sc3c(C)cc(Cl)cc23)c1O | 70 |
| Cc1sc2ccccc2c1-c1c(O)cnn(C)c1=O | 10 |
| Cc1ccc2ccccc2c1-c1c(O)c(I)nn(C)c1=O | 100 |

###

Tested on: ryegrass, Italian (Italian ryegrass, Lolium multiflorum)
Test: Test A greenhouse herbicide test, pre- and postemergence
Assay type: in vivo
Conditions: Postemergence, 500 g ai/ha; visual rating after approx. 10 d, 0 to 100 scale (0 no effect, 100 complete control)

| COMPOUND STRUCTURE | Plant response rating, Ryegrass, Italian |
| --- | --- |
| Cc1nn(C)c(=O)c(-c2c(C)sc3ccc(C(F)(F)F)cc23)c1O | 100 |
| Cc1nn(C)c(=O)c(-c2cccc3ccc(Br)cc23)c1O | 100 |
| CCOC(=O)Oc1c(C)nn(C)c(=O)c1-c1c([N+](=O)[O-])ccc2ccccc12 | 90 |
| CC(=O)Oc1c(Cl)nn(C)c(=O)c1-c1c(C)sc2ccc(C(F)(F)F)cc12 | 90 |

###

Test system: nutsedge, yellow (yellow nutsedge, Cyperus esculentus)
Experiment: Test C greenhouse herbicide test, pre- and postemergence
Type: in vivo
Settings: postemergence, 62 g ai/ha; scale 0 to 100, 0 no effect, 100 complete control
Text: […]
Overview of reported Nutsedge, Yellow plant response rating across a group of compounds:

| COMPOUND STRUCTURE | Nutsedge, Yellow plant response rating |
| --- | --- |
| Cc1ccc2ccccc2c1-c1c(O)c(I)nn(C)c1=O | 35 |
| Cc1nn(C)c(=O)c(-c2cccc3ccccc23)c1O | 15 |
| CCc1sc2ccc(C)cc2c1-c1c(O)c(C)nn(C)c1=O | 70 |
| Cc1ccc2sc(Br)c(-c3c(O)c(C)nn(C)c3=O)c2c1 | 80 |

###

System: oilseed rape (Brassica napus)
Assay: Test D controlled growth environment herbicide test, pre- and postemergence
Type: in vivo
Conditions: Preemergence, 62 g ai/ha; scale 0 to 100 (0 no effect, 100 complete control)
// reported Plant response rating, Oilseed Rape for each item listed

| COMPOUND STRUCTURE | EXPERIMENTAL TARGET | Plant response rating, Oilseed Rape |
| --- | --- | --- |
| COC(=O)Oc1c(C)nn(C)c(=O)c1-c1c(C)sc2ccc(C)cc12 | oilseed rape (Brassica napus) | 35 |
| Cn1nc(Br)c(O)c(-c2cccc3ccccc23)c1=O | oilseed rape (Brassica napus) | 0 |
| Cc1nn(C)c(=O)c(-c2c(C)sc3c(C)cc(Cl)cc23)c1O | oilseed rape (Brassica napus) | 10 |
| Cc1nn(C)c(=O)c(-c2cccc3ccccc23)c1O | oilseed rape (Brassica napus) | 0 |
| CCc1sc2c(C)cc(C)cc2c1-c1c(O)c(C)nn(C)c1=O | oilseed rape (Brassica napus) | 0 |

###

Tested on: kochia (Kochia scoparia)
Experiment: Test D controlled growth environment herbicide test, pre- and postemergence
Type: in vivo
Conditions: Postemergence, 125 g ai/ha; visual rating on scale 0 (no effect) to 100 (complete control), 14 to 21 d

| COMPOUND STRUCTURE | EXPERIMENTAL TARGET | Plant response rating, Kochia |
| --- | --- | --- |
| Cc1ccc2ccccc2c1-c1c(OC(=O)OC(C)C)c(C)nn(C)c1=O | kochia (Kochia scoparia) | 100 |
| Cc1ccc2ccccc2c1-c1c(O)c(Br)nn(C)c1=O | kochia (Kochia scoparia) | 75 |
| Cc1nn(C)c(=O)c(-c2c(C)sc3ccc(Br)cc23)c1O | kochia (Kochia scoparia) | 100 |
| Cc1nn(C)c(=O)c(-c2c(C)sc3c(C)cc(Cl)cc23)c1O | kochia (Kochia scoparia) | 65 |

###

Tested on: chickweed (common chickweed, Stellaria media)
Test: Test C greenhouse herbicide test, postemergence
Assay type: in vivo
Settings: Postemergence, 250 g ai/ha; scale 0 to 100, 0 no effect, 100 complete control; 13 to 15 d
Measured Plant response rating, Chickweed values are reported for all entries that follow.

| COMPOUND | Plant response rating, Chickweed |
| --- | --- |
| CC(=O)Oc1c(C)nn(C)c(=O)c1-c1c(C)cc(C)c2ccccc12 [Compound 99] | 90 |
| Cc1nn(C)c(=O)c(-c2ccc(F)c3ccccc23)c1O [Compound 41] | 100 |
| CCc1sc2c(C)cc(C)cc2c1-c1c(O)c(C)nn(C)c1=O [Compound 57] | 100 |
| CC(=O)Oc1c(C)nn(C)c(=O)c1-c1c(C)sc2ccc(Cl)cc12 [Compound 108] | 98 |
| Cc1ccc2ccccc2c1-c1c(O)c(Br)nn(C)c1=O [Compound 23] | 100 |
| Cc1ccc2sc(C)c(-c3c(OC(=O)C(C)(C)C)c(C)nn(C)c3=O)c2c1 [Compound 26] | 100 |
| CCCC(=O)Oc1c(C)nn(C)c(=O)c1-c1c(CC)sc2ccc(C)cc12 [Compound 107] | 98 |
| Cc1nn(C)c(=O)c(-c2cccc3ccccc23)c1O [Compound 11] | 90 |
